measured-target: Eukaryotic translation initiation factor 2-alpha kinase 1 (Mus musculus) (UniProt Q9Z2R9)
Sequence (Q9Z2R9 whole entry, the tested form may be a part): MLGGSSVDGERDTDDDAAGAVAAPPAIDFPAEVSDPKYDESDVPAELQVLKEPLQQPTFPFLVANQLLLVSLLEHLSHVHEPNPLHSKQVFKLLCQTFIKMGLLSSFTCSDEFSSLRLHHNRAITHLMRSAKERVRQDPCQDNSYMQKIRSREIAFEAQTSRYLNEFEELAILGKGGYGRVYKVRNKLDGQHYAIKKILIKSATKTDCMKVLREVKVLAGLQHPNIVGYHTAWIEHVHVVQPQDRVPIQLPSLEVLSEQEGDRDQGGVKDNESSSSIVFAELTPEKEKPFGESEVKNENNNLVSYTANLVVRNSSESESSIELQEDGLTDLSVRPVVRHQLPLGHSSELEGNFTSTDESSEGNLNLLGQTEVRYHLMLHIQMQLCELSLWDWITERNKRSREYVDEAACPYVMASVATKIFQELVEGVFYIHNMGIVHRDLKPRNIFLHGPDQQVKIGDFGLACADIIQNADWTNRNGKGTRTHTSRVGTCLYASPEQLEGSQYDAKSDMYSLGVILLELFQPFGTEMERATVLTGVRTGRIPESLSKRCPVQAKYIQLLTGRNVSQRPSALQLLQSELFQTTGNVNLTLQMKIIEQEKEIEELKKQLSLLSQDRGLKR
protocol: Activation of HRI in mouse KLN cells transfected with 5'UTR of ATF-4 mRNA fused firefly luciferase mRNA and 5'UTR lacking uORF fused renila luciferase mRNA assessed as increase in eIF2alpha phosphorylation by measuring ratio of firefly luciferase to renila luciferase at 1.25 uM after 16 hrs
Assay type: cell-based
quantity-name: Ratio
Keep the answer to the number alone.

These recorded examples may help you get a feel for the data.
| chemical-string | Ratio |
| --- | --- |
| CC(=O)Nc1cc(C(F)(F)F)ccc1O[C@H]1CC[C@H](NC(=O)Nc2cccc(C(F)(F)F)c2)CC1 | 0.84 |
| O=C(Nc1cccc(C(F)(F)F)c1)N[C@H]1CC[C@H](Oc2ccc(C(F)(F)F)cn2)CC1 | 1.02 |
| O=C(Nc1ccc(Oc2ccc(C(F)(F)F)cc2)cc1)Nc1cccc(OC(F)(F)F)c1 | 2.37 |
| O=C(Nc1cccc(OC(F)(F)F)c1)N[C@H]1CC[C@H](Oc2ccc(OC(F)(F)F)cc2)CC1 | 2.87 |

Reported Ratio, compound O=C(Nc1cc(C(F)(F)F)cc(C(F)(F)F)c1)N[C@H]1CC[C@H](Oc2ccc(C(F)(F)F)cc2)CC1 : ____
8.58

Reported Ratio, compound N#Cc1cccc(NC(=O)N[C@H]2CC[C@H](Oc3ccc(C(F)(F)F)cc3)CC2)c1 : ____
0.96

Reported Ratio, compound NC(=O)c1cc(C(F)(F)F)ccc1O[C@H]1CC[C@H](NC(=O)Nc2cccc(OC(F)(F)F)c2)CC1 : ____
0.88

Reported Ratio, compound N#Cc1ccc(NC(=O)N[C@H]2CC[C@H](Oc3ccc(C#N)cc3)CC2)cc1 : ____
1.03

Reported Ratio, compound NC(=O)c1cc(O[C@H]2CC[C@H](NC(=O)Nc3cccc(OC(F)(F)F)c3)CC2)ccc1C(F)(F)F : ____
1.04

----------
measured-target: UniProt:Q9Z2R9
protocol: Activation of HRI in mouse KLN cells transfected with 5'UTR of ATF-4 mRNA fused firefly luciferase mRNA and 5'UTR lacking uORF fused renila luciferase mRNA assessed as increase in eIF2alpha phosphorylation by measuring ratio of firefly luciferase to renila luciferase at 1.25 uM after 16 hrs
Assay type: cell-based
quantity-name: Ratio
Keep the answer to the number alone.

| chemical-string | value |
| --- | --- |
| N#Cc1cc(C(F)(F)F)ccc1O[C@H]1CC[C@H](NC(=O)Nc2cccc(C(F)(F)F)c2)CC1 | 1.01 |

Field: Ratio (UniProt:Q9Z2R9). Entry: O=C(Nc1ccc(Oc2ccc(C(F)(F)F)cc2)cc1)Nc1cccc(C(F)(F)F)c1
3.31

----------
measured-target: Eukaryotic translation initiation factor 2-alpha kinase 1 (Mus musculus) (UniProt Q9Z2R9)
protocol: Activation of HRI in mouse KLN cells transfected with 5'UTR of ATF-4 mRNA fused firefly luciferase mRNA and 5'UTR lacking uORF fused renila luciferase mRNA assessed as increase in eIF2alpha phosphorylation by measuring ratio of firefly luciferase to renila luciferase at 1.25 uM after 16 hrs
Format: cell-based
Entries and their measured Ratio follow.
Keep the answer to the number alone.

These recorded examples may help you get a feel for the data.
| chemical-string | quantity-name | value |
| --- | --- | --- |
| NC(=O)c1cc(O[C@H]2CC[C@H](NC(=O)Nc3cccc(C(F)(F)F)c3)CC2)ccc1C(F)(F)F | Ratio | 0.79 |
| O=C(Nc1cccc(C(F)(F)F)c1)N[C@H]1CC[C@H](Oc2ccc(C(F)(F)F)cc2[N+](=O)[O-])CC1 | Ratio | 0.96 |

Field: Ratio (Eukaryotic translation initiation factor 2-alpha kinase 1 (Mus musculus) (UniProt Q9Z2R9)). Entry: N#Cc1ccc(O[C@H]2CC[C@H](NC(=O)Nc3cccc(C(F)(F)F)c3)CC2)cc1
0.92

Field: Ratio (Eukaryotic translation initiation factor 2-alpha kinase 1 (Mus musculus) (UniProt Q9Z2R9)). Entry: O=C(Nc1cccc(C(F)(F)F)c1)N[C@H]1CC[C@H](Oc2ccc(OC(F)(F)F)cc2)CC1
3.37

Field: Ratio (Eukaryotic translation initiation factor 2-alpha kinase 1 (Mus musculus) (UniProt Q9Z2R9)). Entry: CC(=O)Nc1cc(C(F)(F)F)ccc1O[C@H]1CC[C@H](NC(=O)Nc2cccc(OC(F)(F)F)c2)CC1
0.85

Field: Ratio (Eukaryotic translation initiation factor 2-alpha kinase 1 (Mus musculus) (UniProt Q9Z2R9)). Entry: N#Cc1cc(NC(=O)N[C@H]2CC[C@H](Oc3ccc(C(F)(F)F)cc3)CC2)cc(C(F)(F)F)c1
5.65
